tested on: 3T3-L1 cells; assay: Insulin-sensitizing activity in 3T3-L1 preadipocyte model, triglyceride accumulation as indication of cell differentiation; format: cell-based; settings: test compound 0.1 μmol/L; with IBMX, DEX and insulin; average of 3 pores (rosiglitazone n = 22, mean ± SD)
Measured The Percentage of Triglyceride Increased in 3T3-L1 Cells accompanies every entry in the list below.

Examples with their reported The Percentage of Triglyceride Increased in 3T3-L1 Cells follow.
{"molecule": "COC(=O)C1Cc2ccc(OCCc3ccccc3)cc2OC1=O (centres unmarked)", "reported.value": "12.90%"}
{"molecule": "COC(=O)c1cc2ccc(OCCc3nc(-c4ccccc4)oc3C)cc2oc1=O", "reported.value": "67.24%"}

Request: Entry under review: Cc1oc(-c2ccccc2)nc1CCOc1ccc2cc(C(=O)OC(C)(C)C)c(=O)oc2c1 . Reported The Percentage of Triglyceride Increased in 3T3-L1 Cells?
Response: 28.20%

Request: Entry under review: Cc1oc(-c2ccccc2)nc1CCOc1ccc2cc(C(=O)O)c(=O)oc2c1 . Reported The Percentage of Triglyceride Increased in 3T3-L1 Cells?
Response: 26.68%

Request: Entry under review: CCc1ccc(CCOc2ccc3cc(C(=O)OC)c(=O)oc3c2)nc1 . Reported The Percentage of Triglyceride Increased in 3T3-L1 Cells?
Response: 11.55%
